Listing: concentration at 6 h of selected compounds
experimentalDetails: Plasma concentration in mouse at 50 mg/kg, po measured after 6 hrs
Assay type: ADME, organism-based
Set-up: dose 50 mg/kg, route oral
parameterMeasured: concentration at 6 h (nM)

[[record]]
smilesrepresentation = "CNC(=O)c1cc(C(=O)NC)cc(-c2ccc(O[C@H]3O[C@H](CO)[C@@H](O)[C@H](O)[C@@H]3O)c(C(F)(F)F)c2)c1"
unittext = "nM"
numericvalue = 40

[[record]]
smilesrepresentation = "CNC(=O)c1cccc(-c2ccc(O[C@H]3O[C@H](CO)[C@@H](O)[C@H](O)[C@@H]3O)c(C)c2)c1"
unittext = "nM"
numericvalue = 100

